target: Pyruvate kinase M2 (PKM2) (Mus musculus, UniProt P52480); construct: full length recombinant mouse PKM2 (M2 isoform; pET-28a, from pLHCX-Flag-mPKM2); assay: LC-MS/MS peptide mapping of the covalent adduct on recombinant PKM2; competition with biotin probe; pyruvate kinase activity assay (IC50)
Sequence (P52480 whole entry, canonical isoform): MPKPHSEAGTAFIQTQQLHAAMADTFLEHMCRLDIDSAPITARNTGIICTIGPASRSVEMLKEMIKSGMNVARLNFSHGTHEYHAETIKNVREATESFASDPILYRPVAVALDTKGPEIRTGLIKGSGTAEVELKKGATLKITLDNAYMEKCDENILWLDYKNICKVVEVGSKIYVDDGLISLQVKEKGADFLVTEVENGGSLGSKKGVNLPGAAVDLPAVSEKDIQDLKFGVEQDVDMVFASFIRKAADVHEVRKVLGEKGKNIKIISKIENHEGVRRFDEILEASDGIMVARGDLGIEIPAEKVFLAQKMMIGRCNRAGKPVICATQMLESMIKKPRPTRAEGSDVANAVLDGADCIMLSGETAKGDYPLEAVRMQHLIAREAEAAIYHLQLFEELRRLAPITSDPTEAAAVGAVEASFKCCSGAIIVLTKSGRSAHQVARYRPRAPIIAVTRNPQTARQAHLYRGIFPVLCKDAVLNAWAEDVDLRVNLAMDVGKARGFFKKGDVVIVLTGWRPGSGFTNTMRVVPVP
measured attribute: pIC50
// field semantics: pIC50 = negative decimal log of concentration (mol/L)

Entry `CC1=C(O)C(=O)C=C2C1=CC=C1[C@@]2(C)CC[C@@]2(C)[C@@H]3C[C@](C)(C(=O)O)CC[C@]3(C)CC[C@]12C` : pIC50 on Pyruvate kinase M2 (PKM2) (Mus musculus, UniProt P52480) = 3.52
